The reported measurements were obtained from patent EP4755880A1.

assay: in vivo; conditions: BALB/c, mouse, po, 5 mg/kg
Readout label: Cmax (ng/mL)
Output spec: scalar in ng/mL, unitless text.

Requested read-out: Cmax. Entry: CC#Cc1cc(CN2CC=C(c3ccc(C(=O)NC)nc3F)CC2)cc2[nH]c(=O)c(C)nc12 [Example 12]
2110

====

test: Pharmacokinetics in SD rats after intravenous injection or gavage; conditions: rat, plasma, iv, 1 mg/kg
Readout label: half-life

{"Compound": "Cc1nc2c(OC(F)F)cc(CN3CCN(c4ccc(C(=O)NC5CC5)nc4F)CC3)cc2[nH]c1=O [Example 46]", "Endpoint result": "3.2 h"}

I'd like to know its half-life. The compound in question is CC#Cc1cc(CN2CC=C(c3ccc(C(=O)NC4CC4)nc3F)CC2)c(F)c2[nH]c(=O)c(C)nc12 [Example 41]
2.1 h

Give its half-life value. Item: CNC(=O)c1ccc(N2CCN(Cc3cc(OC(F)F)c4nc(C)c(=O)[nH]c4c3)CC2)c(C)n1 [Example 52]
3.5 h

Can you share its half-life? I mean this compound: CNC(=O)c1ccc(N2CCN(Cc3cc(OC(C)C)c4nc(C)c(=O)[nH]c4c3)CC2)c(F)n1 [Example 3]
3.4 h

// returns reported half-life for input CNC(=O)c1ccc(N2CCN(Cc3cc(-c4ccccc4)c4nc(C)c(=O)[nH]c4c3)CC2)c(F)n1 [Example 2]
2.1 h

Quick one: half-life of CC#Cc1cc(CN2CCN(c3ccc(C(=O)NC4CC4)nc3F)CC2)cc2[nH]c(=O)c(C)nc12 [Example 35] ?
2.4 h

I am curious: what half-life value has been reported for CC#Cc1cc(CN2CCN(c3ccc(C(=O)NC)nc3F)CC2)cc2[nH]c(=O)c(C)nc12 [Example 7] ?
3.4 h

half-life lookup needed for CNC(=O)c1ccc(C2=CCN(Cc3cc(OC(F)F)c4nc(C)c(=O)[nH]c4c3)CC2)c(F)n1 [Example 15] , thanks.
4.1 h

Return reported half-life; argument: CNC(=O)c1ccc(N2CCN(Cc3cc(OC(F)F)c4nc(C)c(=O)[nH]c4c3)CC2)c(F)n1 [Example 13]
3.2 h
